Exercise: state measured IC50 for each of the compounds provided.
# tested.system: Rat recombinant PDE10A (rPDE10A2) (Rattus norvegicus)
# Construct: inferred from the Ni metal chelate purification; made in house; host or cells: Sf9 insect cells (baculovirus)
# Sequence (Q9QYJ6 1-794): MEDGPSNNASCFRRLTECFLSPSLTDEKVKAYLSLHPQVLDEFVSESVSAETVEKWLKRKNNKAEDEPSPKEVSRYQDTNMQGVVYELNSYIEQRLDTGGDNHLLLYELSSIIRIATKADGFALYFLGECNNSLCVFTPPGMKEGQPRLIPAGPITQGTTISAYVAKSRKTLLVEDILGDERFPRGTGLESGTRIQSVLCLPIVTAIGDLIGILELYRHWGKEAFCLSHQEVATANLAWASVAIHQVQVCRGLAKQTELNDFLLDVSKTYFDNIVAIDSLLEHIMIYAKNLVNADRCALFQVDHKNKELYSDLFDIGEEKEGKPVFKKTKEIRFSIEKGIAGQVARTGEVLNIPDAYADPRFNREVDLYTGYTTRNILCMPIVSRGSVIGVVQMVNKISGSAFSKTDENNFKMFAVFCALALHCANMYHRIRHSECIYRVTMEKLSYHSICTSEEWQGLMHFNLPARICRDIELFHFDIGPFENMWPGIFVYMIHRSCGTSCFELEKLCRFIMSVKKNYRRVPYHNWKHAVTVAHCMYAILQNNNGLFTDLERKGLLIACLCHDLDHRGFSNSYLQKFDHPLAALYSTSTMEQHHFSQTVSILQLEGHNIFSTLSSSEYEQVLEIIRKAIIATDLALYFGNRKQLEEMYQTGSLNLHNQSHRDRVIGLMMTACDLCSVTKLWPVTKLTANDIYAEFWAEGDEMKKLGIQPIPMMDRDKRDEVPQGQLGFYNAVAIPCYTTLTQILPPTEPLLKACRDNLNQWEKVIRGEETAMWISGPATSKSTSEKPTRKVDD
# experiment.notes: In vitro assay PDE10A (SPA, 3H-cAMP)
# Assay type: biochemical
# recorded.conditions: pIC50 corresponds to the −log IC50 expressed in mol/L; read-out: PDE10A2 pIC50 (converted)
Give bare numbers, in nM.

Give one value of IC50 per listed compound.
1. CC(C)Cn1cc(-c2c(C3CC3)nc3c(-c4ccncc4)ccnn23)cn1
2. CCc1ccc(-c2c(C)nc3c(N4CCOCC4)cc(C4CC4)nn23)cn1
3. Cc1cc(N2CCOCC2)c2nc(C3CC3)c(-c3ccc(N4CCOCC4)nc3)n2n1
4. COCCc1ccc(-c2c(C3CC3)nc3c(N4CCOCC4)cc(C)nn23)cn1

[25.1, 269, 447, 302]

====

# tested.system: Rat recombinant PDE10A (rPDE10A2) (Rattus norvegicus)
# Construct: inferred from the Ni metal chelate purification; made in house; host or cells: Sf9 insect cells (baculovirus)
# experiment.notes: In vitro assay PDE10A (SPA, 3H-cAMP)
# Format: biochemical
# recorded.conditions: pIC50 corresponds to the −log IC50 expressed in mol/L; read-out: PDE10A2 pIC50 (converted)
Exercise: state measured IC50 for each of the molecules provided.
Give bare numbers, in nM.

For orientation, consider the following solved cases.
smiles	measured.metric	obs.value
COC(C)(C)COc1ccc(-c2c(C)nc3c(N4CCOCC4)ccnn23)cn1	IC50	170
Cc1nc2c(N3CCOCC3)ccnn2c1-c1ccnc(N2CCCC2)c1	IC50	57.5
Cc1nc2c(N3CCOCC3)ccnn2c1-c1cnn(C2CCOCC2)c1	IC50	97.7
COCCc1ccc(-c2c(C(F)(F)F)nc3c(N4CCOCC4)ccnn23)cn1	IC50	58.9

Give one value of IC50 per listed molecule.
1. CCc1ccc(-c2c(C)nc3c(-c4ccncc4)cc(C4CC4)nn23)cn1
2. COCCn1cc(-c2c(C3CC3)nc3c(-c4ccncc4)ccnn23)cn1
3. Cc1cc(-c2ccncc2)c2nc(C3CC3)c(-c3ccc(N4CCNCC4)nc3)n2n1

263
14.5
178

Give one value of IC50 per listed molecule.
1. FC(F)(F)Cn1cc(-c2c(C3CC3)nc3c(N4CCOCC4)ccnn23)cn1
2. COCCc1ccc(-c2c(C)nc3c(N4CCOCC4)cc(C(F)(F)F)nn23)cn1

39.8
479

Give one value of IC50 per listed molecule.
1. COCCc1ccc(-c2c(C3CC3)nc3c(N4CCOCC4)ccnn23)cn1
2. c1cc(-c2ccnn3c(-c4ccc(N5CCOCC5)nc4)c(C4CC4)nc23)ccn1
3. Cc1nc2c(-c3ccncc3)ccnn2c1-c1ccc(N2CCOCC2)nc1
4. COCCc1ccc(-c2c(C)nc3c(-c4ccncc4)ccnn23)cn1
5. COC(C)(C)Cc1ccc(-c2c(C3CC3)nc3c(N4CCOCC4)cc(C)nn23)cn1
6. COCCn1cc(-c2c(C3CC3)nc3c(N4CCOCC4)ccnn23)cn1

1. 56.2
2. 17.4
3. 60.3
4. 27.5
5. 214
6. 61.7

Give one value of IC50 per listed molecule.
1. Cc1nc2c(N3CCOCC3)cc(C3CC3)nn2c1-c1ccc(N2CCOCC2)nc1
2. COCCn1cc(-c2c(OC)nc3c(N4CCOCC4)ccnn23)cn1
3. COCCOc1ncc(-c2c(C)nc3c(-c4ccncc4)ccnn23)cc1C

1. 380
2. 174
3. 162

Attribution: patent US20120220581A1
